B1: Hairpin Ribozyme (parent)
chain: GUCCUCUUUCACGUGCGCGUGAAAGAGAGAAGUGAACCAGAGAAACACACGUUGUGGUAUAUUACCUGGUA

- Variants of: B1
- Procedure Text: self-cleavage, relative activity (ratio to wild type); higher = more cleavage; co-transcriptional

[
  {
    "Mutant Name": "U5C U63G",
    "self-cleavage": 0.0578
  },
  {
    "Mutant Name": "U5A G13C",
    "self-cleavage": 0.19
  },
  {
    "Mutant Name": "A47C C50A",
    "self-cleavage": 0.29
  },
  {
    "Mutant Name": "A59C C66U",
    "self-cleavage": 0.107
  },
  {
    "Mutant Name": "U2G G42A",
    "self-cleavage": 0.0588
  },
  {
    "Mutant Name": "G13U A30C",
    "self-cleavage": 0.166
  },
  {
    "Mutant Name": "A43G G56U",
    "self-cleavage": 0.0228
  },
  {
    "Mutant Name": "A26G A61U",
    "self-cleavage": 0.281
  },
  {
    "Mutant Name": "U8C G54A",
    "self-cleavage": 0.378
  },
  {
    "Mutant Name": "C66G U70C",
    "self-cleavage": 0.132
  },
  {
    "Mutant Name": "A43C U53A",
    "self-cleavage": 0.129
  },
  {
    "Mutant Name": "A44C C48G",
    "self-cleavage": 0.151
  },
  {
    "Mutant Name": "G13U C46A",
    "self-cleavage": 0.193
  },
  {
    "Mutant Name": "G21C C38A",
    "self-cleavage": 0.18
  },
  {
    "Mutant Name": "G25U A31U",
    "self-cleavage": 0.166
  },
  {
    "Mutant Name": "C18U A47U",
    "self-cleavage": 0.178
  },
  {
    "Mutant Name": "G27A C37U",
    "self-cleavage": 0.32
  },
  {
    "Mutant Name": "A31G U52A",
    "self-cleavage": 0.764
  },
  {
    "Mutant Name": "G13U A47C",
    "self-cleavage": 0.326
  },
  {
    "Mutant Name": "U8G G54C",
    "self-cleavage": 0.313
  },
  {
    "Mutant Name": "C6A A28G",
    "self-cleavage": 0.811
  },
  {
    "Mutant Name": "G29C U67A",
    "self-cleavage": 0.179
  },
  {
    "Mutant Name": "C37U C38A",
    "self-cleavage": 0.145
  },
  {
    "Mutant Name": "A49U U60C",
    "self-cleavage": 0.331
  },
  {
    "Mutant Name": "U7A G40U",
    "self-cleavage": 0.18
  },
  {
    "Mutant Name": "G34A A49G",
    "self-cleavage": 0.754
  },
  {
    "Mutant Name": "C16U A36C",
    "self-cleavage": 0.789
  },
  {
    "Mutant Name": "G40U U62C",
    "self-cleavage": 0.212
  },
  {
    "Mutant Name": "A23G A39C",
    "self-cleavage": 0.408
  },
  {
    "Mutant Name": "A30G U70A",
    "self-cleavage": 0.0747
  },
  {
    "Mutant Name": "A24C U58A",
    "self-cleavage": 0.265
  },
  {
    "Mutant Name": "G19A G40A",
    "self-cleavage": 0.226
  },
  {
    "Mutant Name": "C38G U52G",
    "self-cleavage": 0.0784
  },
  {
    "Mutant Name": "C10U U53G",
    "self-cleavage": 0.725
  },
  {
    "Mutant Name": "U33A U55A",
    "self-cleavage": 0.0922
  },
  {
    "Mutant Name": "G25A A26C",
    "self-cleavage": 0.124
  },
  {
    "Mutant Name": "G42U G57A",
    "self-cleavage": 0.187
  },
  {
    "Mutant Name": "U7C U20G",
    "self-cleavage": 0.751
  },
  {
    "Mutant Name": "G1U C66U",
    "self-cleavage": 0.0959
  },
  {
    "Mutant Name": "U2C G56U",
    "self-cleavage": 0.178
  },
  {
    "Mutant Name": "U67G A71C",
    "self-cleavage": 0.37
  },
  {
    "Mutant Name": "G1U C18A",
    "self-cleavage": 0.157
  },
  {
    "Mutant Name": "G17C G68U",
    "self-cleavage": 0.181
  },
  {
    "Mutant Name": "A36C U70A",
    "self-cleavage": 0.958
  },
  {
    "Mutant Name": "A31G A64G",
    "self-cleavage": 0.284
  },
  {
    "Mutant Name": "G51U G57A",
    "self-cleavage": 0.122
  },
  {
    "Mutant Name": "U2A C4A",
    "self-cleavage": 0.165
  },
  {
    "Mutant Name": "C12U A47U",
    "self-cleavage": 0.194
  },
  {
    "Mutant Name": "G17A G56C",
    "self-cleavage": 0.185
  },
  {
    "Mutant Name": "U2C U70G",
    "self-cleavage": 0.269
  },
  {
    "Mutant Name": "G25A G56C",
    "self-cleavage": 0.117
  },
  {
    "Mutant Name": "U5C C66G",
    "self-cleavage": 0.113
  },
  {
    "Mutant Name": "C46A A59C",
    "self-cleavage": 0.3
  },
  {
    "Mutant Name": "U9C G29A",
    "self-cleavage": 0.118
  },
  {
    "Mutant Name": "U58A U60G",
    "self-cleavage": 0.646
  },
  {
    "Mutant Name": "G15A U33C",
    "self-cleavage": 0.117
  },
  {
    "Mutant Name": "G29A C65U",
    "self-cleavage": 0.145
  },
  {
    "Mutant Name": "C12U A61U",
    "self-cleavage": 0.133
  },
  {
    "Mutant Name": "C6U C50G",
    "self-cleavage": 0.299
  },
  {
    "Mutant Name": "U33G C48U",
    "self-cleavage": 0.112
  },
  {
    "Mutant Name": "A11G A39U",
    "self-cleavage": 0.495
  },
  {
    "Mutant Name": "A23C A36G",
    "self-cleavage": 1.08
  },
  {
    "Mutant Name": "U33C C46A",
    "self-cleavage": 0.0278
  },
  {
    "Mutant Name": "A35U A47C",
    "self-cleavage": 0.258
  },
  {
    "Mutant Name": "G29A G34C",
    "self-cleavage": 0.248
  },
  {
    "Mutant Name": "G1U U20G",
    "self-cleavage": 0.0885
  },
  {
    "Mutant Name": "C10G C46U",
    "self-cleavage": 0.0874
  },
  {
    "Mutant Name": "C48U G51C",
    "self-cleavage": 0.0415
  },
  {
    "Mutant Name": "A11G A30C",
    "self-cleavage": 0.146
  },
  {
    "Mutant Name": "G17C C18G",
    "self-cleavage": 0.645
  },
  {
    "Mutant Name": "C10U U53A",
    "self-cleavage": 0.733
  },
  {
    "Mutant Name": "A11U U63A",
    "self-cleavage": 0.22
  },
  {
    "Mutant Name": "C46A",
    "self-cleavage": 0.148
  },
  {
    "Mutant Name": "U20C A71U",
    "self-cleavage": 0.79
  },
  {
    "Mutant Name": "G1A U53A",
    "self-cleavage": 0.12
  },
  {
    "Mutant Name": "A43G A71U",
    "self-cleavage": 0.16
  },
  {
    "Mutant Name": "C50A G69C",
    "self-cleavage": 0.12
  },
  {
    "Mutant Name": "U52A G69C",
    "self-cleavage": 0.268
  },
  {
    "Mutant Name": "A45U U70C",
    "self-cleavage": 0.056
  },
  {
    "Mutant Name": "U5G G15A",
    "self-cleavage": 0.407
  },
  {
    "Mutant Name": "G25U G29A",
    "self-cleavage": 0.149
  },
  {
    "Mutant Name": "A45C C50A",
    "self-cleavage": 0.209
  },
  {
    "Mutant Name": "U33C A61C",
    "self-cleavage": 0.074
  },
  {
    "Mutant Name": "A59U G69C",
    "self-cleavage": 0.323
  },
  {
    "Mutant Name": "A31U U53G",
    "self-cleavage": 0.122
  },
  {
    "Mutant Name": "C12U G13U",
    "self-cleavage": 0.828
  },
  {
    "Mutant Name": "U5G A35G",
    "self-cleavage": 0.36
  },
  {
    "Mutant Name": "U9G G13C",
    "self-cleavage": 0.528
  },
  {
    "Mutant Name": "U14G U58A",
    "self-cleavage": 0.753
  },
  {
    "Mutant Name": "C46U U70C",
    "self-cleavage": 0.161
  },
  {
    "Mutant Name": "C48A U67G",
    "self-cleavage": 0.122
  }
]
